Values from PubChem BioAssay (NCI)

# Tested on: DMS 114 small cell lung
# Assay: NCI tumour cell line growth inhibition, 48 h
For each record, write down the corresponding TGI.

Give DMS 114 small cell lung TGI for `NC(=S)N/N=C(/CC(=O)c1ccc([N+](=O)[O-])cc1)C(=O)Nc1ncc([N+](=O)[O-])s1` > 100 µM

Item: COC(=O)C(C(=O)C(=O)Nc1cccc(O)c1)c1nc2ccc(Cl)cc2[nH]c1=O (stereo not given) Test system: DMS 114 small cell lung Read-out: TGI Value: ? > 100 µM

Identify the measured TGI of `CC(/C=C/c1ncccc1OCCCCCC(=O)O)=N\NC1=NCCN1` for DMS 114 small cell lung. > 100 µM

Report TGI for `O=c1[nH]c(=S)[nH]c2c1sc(=S)n2-c1ccccc1` tested on DMS 114 small cell lung. > 100 µM

Lab note: need TGI for `COc1ccc(/C=C2\N=C(c3ccccc3)OC2=O)c(OCc2ccccc2)c1` on DMS 114 small cell lung, anyone have it? 92.3 µM

TGI of `O=C(c1cc2ccccc2[nH]1)C(O)(c1cc2ccccc2[nH]1)c1cc2ccccc2[nH]1` on DMS 114 small cell lung? > 246 µM

Checklist item: TGI tested on DMS 114 small cell lung, entry `CC(=O)NNc1nc(C)c(C(=O)NNC(=O)C(=O)Nc2ccc(C)c(C)c2)s1` , value? > 100 µM

Find the measured TGI: item `C/C(=N\NC(=O)CC(=O)Nc1ccc(C)cc1)c1cc2ccccc2oc1=O` , target or system DMS 114 small cell lung. > 100 µM

Give recorded TGI with DMS 114 small cell lung for the following molecule: O=[N+]([O-])c1cccc(C2SCc3nc4ccccc4n32)c1 (stereo not given) > 100 µM

Give DMS 114 small cell lung TGI for `Cc1cc2c3ccccc3n(C)c2c2c1C(=O)c1ccccc1C2=O` 46 µM

Any idea what TGI came out for `OC(c1ccccc1)(c1ccccc1)c1ccccn1` on DMS 114 small cell lung? > 100 µM

What TGI appears in the records for this molecule with DMS 114 small cell lung? `CC1=C(C(=O)Nc2cccc(C(F)(F)F)c2)C(c2ccc(O)cc2)C(C(=O)Nc2cccc(C(F)(F)F)c2)=C(C)N1` 45.8 µM

Write down the reported TGI of `Cc1cc(C)nc(NS(=O)(=O)c2ccc(Nc3c4ccccc4nc4c(C(=O)NCCN(C)C)ccc(Cl)c34)cc2)n1` , test system: DMS 114 small cell lung. 3.94 µM

Give DMS 114 small cell lung TGI for CC(=O)OC1(C#N)CC2OC1C1C2N1C(=O)c1ccccc1 (stereo not given) > 100 µM

Missing value: TGI, DMS 114 small cell lung, entry `Nc1nnc2nc(CC(=O)/C=C/c3ccccc3)c(=O)[nH]n12` . Fill in? > 100 µM

Find TGI (DMS 114 small cell lung) for the entry `CN(C)C(=S)Nc1nnc(NC23CC4CC(CC(C4)C2)C3)s1` 63.1 µM

Find the measured TGI: item `O=C(c1cc(=O)c2ccc(O)cc2o1)c1ccc(Cl)cc1Cl` , target or system DMS 114 small cell lung. > 64 µM

Form: Entry = `NCCCNCCSSCc1ccccc1CSSCCNCCCN` | System = DMS 114 small cell lung | TGI = ____ > 100 µM

Can you look up TGI on DMS 114 small cell lung for `COc1cc2cc3c4c(cc(OC)c(OC)c4c2cc1OC)CCN3C(=O)CCCC(=O)O` ? > 100 µM

Under DMS 114 small cell lung: TGI value of `O=C(NCCCN1CCN(CCCNC(=O)c2cnc3ccccc3n2)CC1)c1cnc2ccccc2n1` ? > 100 µM
